Overview of recorded IC50 for various molecules
- System: HL60/RV, MDR + AML
- test.protocol: In vitro growth inhibition (CellTiter-Glo, 96 h), HL60/RV
- Assay type: cell-based
- settings: Homo sapiens, HL-60; anthracycline free drugs, 96 h; read-out: IC50 (nM) HL60/RV, MDR + AML

{"molecule": "COc1cccc2c1C(=O)c1c(O)c3c(c(O)c1C2=O)C[C@@](O)(C(=O)CO)C[C@@H]3O[C@H]1C[C@H](N)[C@H](O)[C@H](C)O1 [Compound 1, Doxorubicin, reference compound]", "IC50": "100 to 1000 nM"}

Now look at this entry.
get_value(item= "COc1cccc2c1C(=O)c1c(O)c3c(c(O)c1C2=O)C[C@@](O)(C(=O)O)C[C@@H]3O[C@H]1C[C@H](N)[C@H](O)[C@H](C)O1" , readout=IC50) returns > 1000 nM
